Tested on: MDA-MB-435
TEST: NCI tumour cell line growth inhibition, 48 h
Active and inactive are the calls of the source. Cut-off read from the data, not from the text of the source: active = GI50 up to about 1.1 µM and inactive = higher.
Listing of entries alongside the reported GI50.

// solved cases for GI50 follow
>>> print(df.to_string())
                                chem_smiles               result
0                Nc1nc(Cl)cc(NCC2(O)CCC2)n1  > 100 µM (inactive)
1  O=C1CS/C(=N/N=C/c2cn(Cc3ccc(Cl)cc3Cl)c3ccccc23)N1     25 µM (inactive)
2  COC(C/C(=C/CO[Si](C(C)C)(C(C)C)C(C)C)C(=O)N(COCC[Si](C)(C)C)c1ccccc1I)OC   5.53 µM (inactive)
3  COc1c(OC)c(OC)c(-c2cc(=O)c3c(OC)c(OC)c(OC)c(OC)c3o2)c(OC)c1OC   34.5 µM (inactive)

Kindly consider the entry below.
Tell me reported GI50 for Cc1c(/C=N\NC(=S)N(C)CCN(C)C(=S)N/N=C\c2c(C)n(C)n(-c3ccccc3)c2=O)c(=O)n(-c2ccccc2)n1C , tested with MDA-MB-435.
> 100 µM (inactive)

----------
Tested on: KM-20L2
TEST: NCI tumour cell line growth inhibition, 48 h
Active and inactive are the calls of the source. Rule as the data show it: active = GI50 up to about 1.1 µM and inactive = higher.
MEASUREMENT_LABEL: GI50

>>> print(df.to_string())
                                   compound               result
0  COc1ccc(C(c2ccc(C(C)C)cc(OC)c2=O)c2ccc(C(C)C)cc(OC)c2=O)cc1   14.1 µM (inactive)
1  NNC(=O)C(=O)N/N=C1\CCCC1C(=O)CCC(=O)Nc1cccc(Cl)c1 (stereo unspecified)  > 100 µM (inactive)
2  O=C1C=CC2(C=C1)CCNC1=C2C(=O)c2ccccc2C1=O  > 100 µM (inactive)
3  Cc1ccc(C(=O)O)cc1NC(=O)c1cc(/C=C/c2ccccc2)[nH]c(=S)n1  > 100 µM (inactive)
4  C=C1C(=O)C23CC1CCC2C12CO[C@@]3(O)[C@@H](O)C1C(C)(C)C=CC2=O (stereo partly specified)   1.44 µM (inactive)

Item O=C(N/C(=C\c1cccc([N+](=O)[O-])c1)c1nc2c3c(ccc2[nH]1)C(=O)c1ccccc1C3=O)c1ccccc1 with KM-20L2 - GI50?
30.2 µM (inactive)

Provide the documented GI50 with KM-20L2 as the system for C=C(OC1C(C)=C2C(C1OC(=O)CCCCCCC)C(C)(OC(C)=O)CC(OC(=O)CCC)C1(O)C2OC(=O)C1(C)O)/C(C)=C/C (stereo unspecified)
0.0314 µM (active)

Form: Entry = NC(=O)COc1ccc(Br)cc1Br | System = KM-20L2 | GI50 = ____
> 100 µM (inactive)

----------
Test system: SNB-78
TEST: NCI tumour cell line growth inhibition, 48 h
Activity calls are given as the source filed them. No stated cut-off is given here; in the data, active = GI50 up to about 1.1 µM and inactive = higher.
MEASUREMENT_LABEL: GI50

>>> df
                                   compound               result
0  Nc1nc(SCCNC(=O)CCc2ccc(O)c(I)c2)nc2c1ncn2C1OC(CO)C(O)C1O (stereo not drawn)  > 100 µM (inactive)
1  Cn1cc(NC(=O)c2cc(NC(=O)CCCCCCC(=O)Nc3cc(C(=O)Nc4cc(C(=O)NCCC(=N)N)n(C)c4)n(C)c3)cn2C)cc1C(=O)NCCC(=N)N   24.2 µM (inactive)
2  O=C(CC1(O)C(=O)Nc2c(Cl)cc(Cl)cc21)c1ccc(F)cc1 (stereo not drawn)   83.9 µM (inactive)
3  C=CCC1(CN(C)C)CC/C(=C\c2ccc(Cl)cc2)C1=O (stereo not drawn)   27.4 µM (inactive)
4      Cc1ccc2nc3c(C(=O)NCCN(C)C)cccc3nc2c1   7.31 µM (inactive)

Recorded GI50 of Nc1[nH]cnc2ncnc1-2 , please.
114 µM (inactive)

GI50 for CC1(C)CCC(=O)c2c(O)ccc(O)c21 ?
> 100 µM (inactive)

I would be grateful if you could share the reported GI50 for N/C(=C\c1ccc(/C=C(\NC(=O)c2ccccc2)c2nc3c([nH]2)C(=O)c2ccccc2C3=O)cc1)c1nc2c([nH]1)C(=O)c1ccccc1C2=O .
20.6 µM (inactive)
